Reference for the values: the supplement of paper PMC11246515

# assay-details: total protein half-life in vivo (active degradation + dilution); higher = more stable protein
# test-parameters: wild type E. coli NCM3722; growth: P-lim chemostat; doubling time 12 h
total protein half-life in vivo of 10 h or higher: label 1. Under 10 h: label 0.

Here are 8 sequences together with their reported answers.
MHYQPKQDLLNDRIILVTGASDGIGREAAMTYARYGATVILLGRNEEKLRQVASHINEETGRQPQWFILDLLTCTSENCQQLAQRIAVNYPRLDGVLHNAGLLGDVCPMSEQNPQVWQDVMQVNVNATFMLTQALLPLLLKSDAGSLVFTSSSVGRQGRANWGAYAASKFATEGMMQVLADEYQQRLRVNCINPGGTRTAMRASAFPTEDPQKLKTPADIMPLYLWLMGDDSRRKTGMTFDAQPGRKPGISQ	label 1
MAIDENKQKALAAALGQIEKQFGKGSIMRLGEDRSMDVETISTGSLSLDIALGAGGLPMGRIVEIYGPESSGKTTLTLQVIAAAQREGKTCAFIDAEHALDPIYARKLGVDIDNLLCSQPDTGEQALEICDALARSGAVDVIVVDSVAALTPKAEIEGEIGDSHMGLAARMMSQAMRKLAGNLKQSNTLLIFINQIRMKIGVMFGNPETTTGGNALKFYASVRLDIRRIGAVKEGENVVGSETRVKVVKNKIAAPFKQAEFQILYGEGINFYGELVDLGVKEKLIEKAGAWYSYKGEKIGQGKANATAWLKDNPETAKEIEKKVRELLLSNPNSTPDFSVDDSEGVAETNEDF [P0A7G6]	label 0
MSAVLTAEQALKLVGEMFVYHMPFNRALGMELERYEKEFAQLAFKNQPMMVGNWAQSILHGGVIASALDVAAGLVCVGSTLTRHETISEDELRQRLSRMGTIDLRVDYLRPGRGERFTATSSLLRAGNKVAVARVELHNEEQLYIASATATYMVG [P0ADP2]	label 1
MKKWSRHLLAAGALALGMSAAHADDNNTLYFYNWTEYVPPGLLEQFTKETGIKVIYSTYESNETMYAKLKTYKDGAYDLVVPSTYYVDKMRKEGMIQKIDKSKLTNFSNLDPDMLNKPFDPNNDYSIPYIWGATAIGVNGDAVDPKSVTSWADLWKPEYKGSLLLTDDAREVFQMALRKLGYSGNTTDPKEIEAAYNELKKLMPNVAAFNSDNPANPYMEGEVNLGMIWNGSAFVARQAGTPIDVVWPKEGGIFWMDSLAIPANAKNKEGALKLINFLLRPDVAKQVAETIGYPTPNLAARKLLSPEVANDKTLYPDAETIKNGEWQNDVGAASSIYEEYYQKLKAGR [P0AFK9]	label 1
MDVRQSIHSAHAKTLDTQGLRNEFLVEKVFVADEYTMVYSHIDRIIVGGIMPITKTVSVGGEVGKQLGVSYFLERRELGVINIGGAGTITVDGQCYEIGHRDALYVGKGAKEVVFASIDTGTPAKFYYNCAPAHTTYPTKKVTPDEVSPVTLGDNLTSNRRTINKYFVPDVLETCQLSMGLTELAPGNLWNTMPCHTHERRMEVYFYFNMDDDACVFHMMGQPQETRHIVMHNEQAVISPSWSIHSGVGTKAYTFIWGMVGENQVFDDMDHVAVKDLR	label 1
MTVETQLNPTQPVNQQIYRILRRDIVHCLIAPGTPLSEKEVSVRFNVSRQPVREAFIKLAENGLIQIRPQRGSYVNKISMAQVRNGSFIRQAIECAVARRAASMITESQCYQLEQNLHQQRIAIERKQLDDFFELDDNFHQLLTQIADCQLAWDTIENLKATVDRVRYMSFDHVSPPEMLLRQHLDIFSALQKRDGDAVERAMTQHLQEISESVRQIRQENSDWFSEE [P0ACM2]	label 0
MKTIHDIRRSNARKLRDGVGGNSSFATMIDREPTQTSRFMGDGATKNIGDSMARHIEKCFDLPVGWLDQEHQTTNITKKPDVSITNKQITLVPVISWVQAGAWKEVGYSEVDLSTAETYPCPVPCGEMTYILRVIGDSMIDEYRPGDMIFVDPEVPACHGDDVIALMHDTGETTFKRLIEDGTQRYLKALNPNWPEPYIKINGNCSIIGTVIFSGKPRRYKIKA	label 1
MIRFEHVSKAYLGGRQALQGVTFHMQPGEMAFLTGHSGAGKSTLLKLICGIERPSAGKIWFSGHDITRLKNREVPFLRRQIGMIFQDHHLLMDRTVYDNVAIPLIIAGASGDDIRRRVSAALDKVGLLDKAKNFPIQLSGGEQQRVGIARAVVNKPAVLLADEPTGNLDDALSEGILRLFEEFNRVGVTVLMATHDINLISRRSYRMLTLSDGHLHGGVGHE [P0A9R7]	label 1

In plain terms: is recorded total protein half-life in vivo at least 10 h for MARIIVVTSGKGGVGKTTSSAAIATGLAQKGKKTVVIDFDIGLRNLDLIMGCERRVVYDFVNVIQGDATLNQALIKDKRTENLYILPASQTRDKDALTREGVAKVLDDLKAMDFEFIVCDSPAGIETGALMALYFADEAIITTNPEVSSVRDSDRILGILASKSRRAENGEEPIKEHLLLTRYNPGRVSRGDMLSMEDVLEILRIKLVGVIPEDQSVLRASNQGEPVILDINADAGKAYADTVERLLGEERPFRFIEEEKKGFLKRLFGG [P0AEZ3] ? label 0

In plain terms: is recorded total protein half-life in vivo at least 10 h for MKFKVIALAALMGISGMAAQANELPDGPHIVTSGTASVDAVPDIATLAIEVNVAAKDAATAKKQADERVAQYISFLELNQIAKKDISSANLRTQPDYDYQDGKSILKGYRAVRTVEVTLRQLDKLNSLLDGALKAGLNEIRSVSLGVAQPDAYKDKARKAAIDNAIHQAQELANGFHRKLGPVYSVRYHVSNYQPSPMVRMMKADAAPVSAQETYEQAAIQFDDQVDVVFQLEPVDQQPAKTPAAQ [P0ADS6] ? label 1

In plain terms: is recorded total protein half-life in vivo at least 10 h for MFNEVHSIHGHTLLLITKSSLQATALLQHLKQSLAITGKLHNIQRSLDDISSGSIILLDMMEADKKLIHYWQDTLSRKNNNIKILLLNTPEDYPYRDIENWPHINGVFYSMEDQERVVNGLQGVLRGECYFTQKLASYLITHSGNYRYNSTESALLTHREKEILNKLRIGASNNEIARSLFISENTVKTHLYNLFKKIAVKNRTQAVSWANDNLRR ? label 0
